From: paper PMC9387934

Experiment: Phase 1a single ascending dose study: UV-4 plasma concentrations and PK parameters (LC-MS/MS, noncompartmental)
Type: in vivo
Conditions: both sexes, human, plasma, po, 90 mg, 90 mg single oral dose; Ar Mean; read-out: t1/2 (converted)
Recorded Metric: half-life (h)

- Compound Structure: "COCCCCCCCCCN1C[C@H](O)[C@@H](O)[C@H](O)[C@H]1CO"
  Data Value: 10.4

====

Assay: Phase 1a single ascending dose study: UV-4 in pooled urine, urinary recovery and renal clearance
Assay type: in vivo, human
Conditions: both sexes, human, urine, po, 90 mg, 90 mg single oral dose; Geo Mean
Recorded Metric: CL renal (mL/min)

- Compound Structure: "COCCCCCCCCCN1C[C@H](O)[C@@H](O)[C@H](O)[C@H]1CO"
  Data Value: 227

====

Assay: Phase 1a single ascending dose study: UV-4 in pooled urine, urinary recovery and renal clearance
Format: in vivo, human
Settings: both sexes, human, urine, po, 30 mg, 30 mg single oral dose; Geo Mean

- Compound Structure: "COCCCCCCCCCN1C[C@H](O)[C@@H](O)[C@H](O)[C@H]1CO"
  CL renal, mL/min: 208

====

Assay: Phase 1a single ascending dose study: UV-4 plasma concentrations and PK parameters (LC-MS/MS, noncompartmental)
Assay type: in vivo
Settings: both sexes, human, plasma, po, 720 mg, 720 mg single oral dose; Ar Mean; read-out: Vz/F
Recorded Metric: Vd/F (L)

- Molecule: "COCCCCCCCCCN1C[C@H](O)[C@@H](O)[C@H](O)[C@H]1CO [UV-4B]"
  Data Value: 260

====

Assay: Phase 1a single ascending dose study: UV-4 plasma concentrations and PK parameters (LC-MS/MS, noncompartmental)
Type: in vivo
Conditions: both sexes, human, plasma, po, 180 mg, 180 mg single oral dose; Geo Mean; read-out: AUC(0-inf)
Recorded Metric: AUC(0-inf) (ng·h/mL)

- Compound Structure: "COCCCCCCCCCN1C[C@H](O)[C@@H](O)[C@H](O)[C@H]1CO"
  Recorded Metric: "AUC(0-inf)"
  Data Value: 7090

====

Test: 14-day GLP toxicology study in mice (UV4-COV-036)
Settings: Crl:CD1(ICR), mouse, in vivo, 300 mg/kg/day, read-out: Daily exposure at NOAEL [3 x AUC(0-8)]
Recorded Metric: AUC(0-t) (µg·h/mL)

- Compound: "COCCCCCCCCCN1C[C@H](O)[C@@H](O)[C@H](O)[C@H]1CO [UV-4B]"
  Recorded Metric: "AUC(0-t)"
  Data Value: 163

====

Assay: Phase 1a single ascending dose study: UV-4 plasma concentrations and PK parameters (LC-MS/MS, noncompartmental)
Assay type: in vivo
Conditions: both sexes, human, plasma, po, 90 mg, 90 mg single oral dose; Arithmetic Mean; read-out: AUC(0-inf)
Procedure: UV-4 ((2R,3R,4R,5S)-2-(hydroxymethyl)-1-(9-methoxynonyl)piperidine-3,4,5-triol, also called N-(9’-methoxynonyl)-1-deoxynojirimycin, or MON-DNJ) hydrochloride was evaluated in a first-in-human, randomized, single-center, double-blind, placebo-controlled, parallel group, single ascending dose Phase 1a clinical trial in healthy subjects (Figs 1 and 2, ClinicalTrials.gov Identifier NCT02061358 https://clinicaltrials.gov/ct2/show/NCT02061358). […]

- Compound Structure: "COCCCCCCCCCN1C[C@H](O)[C@@H](O)[C@H](O)[C@H]1CO"
  AUC(0-inf): "3730 ng·h/mL"
